Values from ChEMBL document CHEMBL1133186

Molecular target: Topoiomerase 1B (Molluscum contagiosum virus subtype 1) (UniProt Q98254)
Sequence (Q98254 as listed by the source): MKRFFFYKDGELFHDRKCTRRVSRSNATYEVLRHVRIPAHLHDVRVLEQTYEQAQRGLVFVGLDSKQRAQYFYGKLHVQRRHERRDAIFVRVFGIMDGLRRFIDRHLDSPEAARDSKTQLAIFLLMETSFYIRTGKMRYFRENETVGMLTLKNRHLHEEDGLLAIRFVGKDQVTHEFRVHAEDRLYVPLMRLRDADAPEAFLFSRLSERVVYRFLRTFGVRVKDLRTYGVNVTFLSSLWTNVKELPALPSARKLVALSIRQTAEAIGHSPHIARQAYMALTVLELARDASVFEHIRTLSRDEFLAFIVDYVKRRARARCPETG
Assay: DNA cleavage and religation activity as inhibition of type 1B topoisomerase of molluscum contagiosum virus (MCV)
Assay type: functional
Active and inactive are the calls of the source. No cut-off for these calls is given here.
observation-type: inhibition

CC1(C)CC2(CC(C)(C)c3cc([N+](=O)[O-])c(O)c([N+](=O)[O-])c32)c2cc(O)c([N+](=O)[O-])cc21 (stereo not drawn) ... inactive
CC1(C)CC2(CC(C)(C)c3cc(S(=O)(=O)O)c(O)cc32)c2cc(O)c(S(=O)(=O)O)cc21 ... inactive
CC1(C)CC2(CC(C)(C)c3ccc(OS(=O)(=O)O)cc32)c2cc(OS(=O)(=O)O)ccc21 ... inactive

====

Test: HeLa cell cytotoxicity by MTT cytotoxicity assay
Type: cell-based
Details: human, HeLa cells; read-out: LD50 (the source's name)
observation-type: CC50 (µM)
Entry rule: numbers only, all in µM.

// worked examples, CC50 included
CC1(C)CC2(CC(C)(C)c3c(Br)c(OS(=O)(=O)O)c(OS(=O)(=O)O)c(Br)c32)c2c(Br)c(OS(=O)(=O)O)c(OS(=O)(=O)O)c(Br)c21 ... 207
CC1(C)CC2(CC(C)(C)c3cc(OS(=O)(=O)O)c(OS(=O)(=O)O)cc32)c2cc(OS(=O)(=O)O)c(OS(=O)(=O)O)cc21 ... 134
CC1(C)CC2(CC(C)(C)c3c(Br)c(O)c(O)c(Br)c32)c2c(Br)c(O)c(O)c(Br)c21 ... 18
CC1(C)CC2(CC(C)(C)c3cc(NC(N)=O)c(O)cc32)c2cc(O)c(NC(N)=O)cc21 ... 53
CC1(C)CC2(CC(C)(C)c3cc(N)c(O)cc32)c2cc(O)c(N)cc21 ... 47

Ask | Request the reported CC50 associated with `CC1(C)CC2(CC(C)(C)c3cc([N+](=O)[O-])c(O)cc32)c2cc(O)c([N+](=O)[O-])cc21`
Reply | 198

====

Biological target: UniProt Q98254
Experiment: DNA cleavage and religation activity as inhibition of type 1B topoisomerase of molluscum contagiosum virus (MCV)
Assay type: functional
Active and inactive are the calls of the source. No cut-off for these calls is given here.
observation-type: inhibition

Previously resolved entries follow.
CC1(C)CC2(CC(C)(C)c3cc([N+](=O)[O-])c(O)cc32)c2cc(O)c([N+](=O)[O-])cc21 ... inactive
CC1(C)CC2(CC(C)(C)c3cc(C=O)c(O)cc32)c2cc(O)c(C=O)cc21 ... inactive
CC1(C)CC2(CC(C)(C)c3ccc(O)c(N)c32)c2cc(O)c(N)cc21 (stereo not drawn) ... inactive
CC1(C)CC2(CC(C)(C)c3cc(O)c(O)cc32)c2cc(O)c(O)cc21 ... inactive
CC1(C)CC2(CC(C)(C)c3cc(N)c(O)cc32)c2cc(O)c(N)cc21 ... inactive
CC1(C)CC2(CC(C)(C)c3ccc(O)c([N+](=O)[O-])c32)c2cc(O)c([N+](=O)[O-])cc21 (stereo not drawn) ... inactive
CC1(C)CC2(CC(C)(C)c3cc(Br)c(OS(=O)(=O)O)cc32)c2cc(OS(=O)(=O)O)c(Br)cc21 ... inactive

Now, please, on to the next molecule.
Ask | Any idea what inhibition came out for `CC1(C)CC2(CC(C)(C)c3cc(OS(=O)(=O)O)c(OS(=O)(=O)O)cc32)c2cc(OS(=O)(=O)O)c(OS(=O)(=O)O)cc21` on UniProt Q98254?
Reply | inactive
